- Test system: HCT-116
- Experiment Summary: NCI tumour cell line growth inhibition, 48 h
Activity calls are given as the source filed them. Cut-off read from the data, not from the text of the source: active = GI50 up to about 1.1 µM and inactive = higher.
# GI50 per record follows
Measured Metric: GI50

> print(dat)
                                    compound   experimental.value
 1  CCN(CC)c1ccc(/N=N\c2ccc(-c3nc4ccc[n+](C)c4s3)cc2)cc1   3.53 µM (inactive)
 2    COc1nc2ccc(COc3ccc(C(=O)O)cc3)cc2nc1OC   39.9 µM (inactive)
 3  COC(=O)C1(O)c2ccccc2N=C2C(=O)c3ccccc3N21 (stereo not given)  > 100 µM (inactive)
 4  COc1cccc(NC(=O)N/C(=C/c2ccc(N(CCC#N)CCC#N)cc2)NC(=O)c2cc([N+](=O)[O-])ccc2Cl)c1  > 100 µM (inactive)
 5          CCNc1cc2oc(=O)cc(C(F)(F)F)c2cc1C  > 100 µM (inactive)
 6  COc1cccc([C@@H]2C/C(=N\NC(=O)C(=O)N[C@@H](C)c3ccccc3)c3cc4c(cc3N2)OCO4)c1   22.4 µM (inactive)
 7  C=CCO[C@]1(CC=C)C(=O)C(=O)OC1C1COC(C)(C)O1 (stereo not given in full)     32 µM (inactive)
 8  O=C1CC(c2ccc(Cl)cc2)C2(C(=O)NC(=S)NC2=O)C(c2ccc(Cl)cc2)C1 (stereo not given)   18.7 µM (inactive)
 9   COC(=O)/C=C\C(C#N)(C#N)/N=C/c1ccc(C)cc1   1.76 µM (inactive)
10  CC1(C)C2CCC(=O)C1C(OCc1ccccc1)C2 (stereo not given)  > 100 µM (inactive)
